Settings: 318.15 K; 101.33 kPa; Liquid; Vibrating tube method
READOUT_TYPE: mass density (kg/m3)

{"COMPOUND": "CCCCCCCC(=O)[O-].CCCCCCCC[NH+](CCCCCCCC)CCCCCCCC [trioctylammonium octanoate]", "DISPLAY_UNIT": "kg/m3", "mass density": 832.38}
{"COMPOUND": "CCCCCCCC(=O)[O-].CCCCCC[NH+](CCCCCC)CCCCCC [trihexylammonium octanoate]", "DISPLAY_UNIT": "kg/m3", "mass density": 833.31}
{"COMPOUND": "CCCCCC(=O)[O-].CCCCCC[NH+](CCCCCC)CCCCCC [trihexylammonium hexanoate]", "DISPLAY_UNIT": "kg/m3", "mass density": 831.69}
{"COMPOUND": "CCCC(=O)[O-].CCCCCCCC[NH+](CCCCCCCC)CCCCCCCC [trioctylammonium butanoate]", "DISPLAY_UNIT": "kg/m3", "mass density": 828.12}
{"COMPOUND": "CCCCCC(=O)[O-].CCCCCCCC[NH+](CCCCCCCC)CCCCCCCC [trioctylammonium hexanoate]", "DISPLAY_UNIT": "kg/m3", "mass density": 830.61}
{"COMPOUND": "CCCC(=O)[O-].CCCCCC[NH+](CCCCCC)CCCCCC [trihexylammonium butanoate]", "DISPLAY_UNIT": "kg/m3", "mass density": 829.5}

Value source: the NIST ThermoML archive (doi:10.1016/j.jct.2019.02.015)
